# credit: PubChem BioAssay (NCI)

# Experimental protocol: NCI Yeast Anticancer Drug Screen. Data for the rad50 strain (AID 155);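 also: 0% = growth of vehicle-only cultures of the same strain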
# Test conditions: S. cerevisiae rad50 strain growth inhibition; at 50.0 µM; active compounds read high
About 79,000 compounds went through this panel and 15% of them were active in at least one assay; those are over-represented in the sample as a whole.
Below: a set of entries, each annotated with reported growth inhibition.

{"columns": ["Compound", "growth inhibition (%)"],
 "data": [
  ["CC(=O)C1=C(C)O/C(=C/c2ccc(Cl)cc2)C1=O", 49.5],
  ["CC(=O)OC12CCC3C4CC=C5CC(O)CCC5(C)C4C(=O)C3C1(C)N1CC(C)CC(O)C1C2C (centres undefined)", 74.5],
  ["Nc1nc(-c2ccccn2)cc2cc(Cl)ccc12", 3.15],
  ["Cc1c(-c2ccccc2)ccnc1/C=N/NC(=S)Nc1ccc(N(C)C)cc1", 74.8]
]}

---

Below: a set of entries, each annotated with reported growth inhibition.
# Experimental protocol: NCI Yeast Anticancer Drug Screen. Data for the cln2 rad14 strain (AID 165);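 also: 0% = growth equal to vehicle treated cultures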
# Test conditions: S. cerevisiae cln2 rad14 strain, at 5.0 µM (retest, dose inferred, filed as 0.5), active compounds read high
The panel holds about 79,000 compounds, 15% with a hit somewhere; the sample as a whole holds those more often.
Quantity: growth inhibition (%)

{"columns": ["Compound", "Quantity", "Measured value"],
 "data": [
  ["Nc1nc(N)c2nc(Sc3ccc(F)cc3)c(N)nc2n1", "growth inhibition", 2],
  ["CC(/C=C/c1cccs1)=N\\NC(=S)NCC(C)C", "growth inhibition", -2],
  ["Oc1cc(Br)cc2cc(Cl)cnc12", "growth inhibition", 98],
  ["COC(=O)Cc1cn[nH]c1C(=O)OC", "growth inhibition", -66],
  ["c1cc(CCSSCCc2ccncc2)ccn1", "growth inhibition", 4],
  ["Cn1c(=S)c2[nH]c(SCCN3CCOCC3)nc2n(C)c1=O", "growth inhibition", 3],
  ["CN1N=C2c3ccccc3CC[C@H]2C1c1cccc(O)c1 (some centres not stated)", "growth inhibition", 24],
  ["CCc1nc(N)nc(N)c1-c1ccc(N(C)Cc2ccccc2)c([N+](=O)[O-])c1", "growth inhibition", 31],
  ["Cc1cccc2c(=O)c3ccccc3oc12", "growth inhibition", 12],
  ["O=C(/C(=C/c1ccc(Cl)cc1)c1ccccc1)c1ccc(O)cc1", "growth inhibition", 53],
  ["COC(C(=O)C1=C2Oc3c4c(cc(O)c3C(=O)C2C2=C(CCCC2)C1=O)OC(C)(C)C=C4)C(C)CCC=C(C)C (configuration not stated)", "growth inhibition", -5],
  ["Cc1ccc(S(=O)(=O)OCCCCOS(=O)(=O)c2ccc(C)cc2)cc1", "growth inhibition", 2],
  ["C=C(C)C(CC=C(C)C)Cc1c(O)cc(OC)c2c1OC(c1ccc(O)cc1O)C(O)C2=O (configuration not stated)", "growth inhibition", 19],
  ["CCN(CC)CCNc1ccc(OC)c2cccnc12", "growth inhibition", 5],
  ["Oc1ccc(Cl)cc1Cc1cc(Cl)cc(Cc2cc(Cl)ccc2O)c1O", "growth inhibition", -12],
  ["C[C@]12CC[C@H](O)C[C@@H]1CC[C@@H]1[C@@H]2CC[C@]2(C)[C@@H](c3cc(C(F)(F)F)n[nH]3)CC[C@@H]12", "growth inhibition", 7],
  ["C=C(CN(C)C)C(=O)c1ccccc1", "growth inhibition", -26]
]}
